Test system: U2OS
assay explanation: Multiplex assay against U2OS
Type: toxicity, cell-based
settings: human, 24 h, 1 µM, compound concentration 1 uM, replicate 2
Entries and their Population Apoptotic (%) values follow.
parameter measured: Population Apoptotic (%)

> print(dat)
                                item.smiles        parameter.measured  numeric.result
1  Cl.Cl.NC1(c2ccc(-c3nc4ccn5c(=O)[nH]nc5c4cc3-c3ccccc3)cc2)CCC1  Population Apoptotic (%)              16
2  Cl.Cl.Nc1ncnc2c1c(-c1cccc(OCc3ccccc3)c1)cn2[C@H]1C[C@@H](CN2CCC2)C1  Population Apoptotic (%)              28
3  Nc1nc2c(c(N3CCNCC3)n1)CCC1=C2[C@@H]2CCCC[C@@H]2O1  Population Apoptotic (%)              20
4  COc1cc2c(NC3CCN(C(C)C)CC3)nc(N3CCC(F)(F)CC3)nc2cc1OCCCN1CCCC1  Population Apoptotic (%)              29
5  CCCn1c(=O)c2[nH]c(C34CC5CC(CC3C5)C4)nc2n(CCC)c1=O  Population Apoptotic (%)              40
6  CC(C)N1CCC(C)(C)c2cc(C#Cc3ccc(C(=O)O)cc3)ccc21  Population Apoptotic (%)              50
7  Cc1cn(-c2cc(NC(=O)c3ccc4c(c3)CN(c3cncnc3)C[C@@H]4C)cc(C(F)(F)F)c2)cn1  Population Apoptotic (%)              42
8  COc1ccc(NS(=O)(=O)c2sc3ccc(Cl)cc3c2C)cc1N1CCNCC1.Cl  Population Apoptotic (%)              33

* * *

Entries and their Population Hoechst High Intensity Objects (%) values follow.
System: Fibroblast
assay explanation: Multiplex assay against human fibroblast
Format: toxicity, cell-based
settings: 24 h, 1 µM, compound concentration 1 uM, replicate 1
parameter measured: Population Hoechst High Intensity Objects (%)

> print(dat)
                                   molecule  result
1  CCCn1c(=O)c2[nH]c(C34CC5CC(CC3C5)C4)nc2n(CCC)c1=O [ROLOFYLLINE]     13%
2  Nc1nc2c(c(N3CCNCC3)n1)CCC1=C2[C@@H]2CCCC[C@@H]2O1     24%
3  CCc1cc2c(cc1CC)CC(NC[C@H](O)c1ccc(O)c3[nH]c(=O)ccc13)C2 [INDACATEROL]     10%
4  COc1cc2c(Nc3ccc(NC(=O)c4ccccc4)cc3)ncnc2cc1OCCCN1CCOCC1     46%
5  CC(C)Oc1ccc(C(=O)N[C@H](CNC(=O)CN(C)C)Cc2ccc(-c3cn4cccc([C@H](C)O)c4n3)cc2)cc1Cl [GSK-923295A]     18%
6             CNc1oc(-c2cccc3ccccc23)nc1C#N     70%

* * *

Test system: U2OS
assay explanation: Multiplex assay against U2OS
Assay type: toxicity, cell-based
settings: human, 48 h, 10 µM, compound concentration 10 uM, replicate 2
parameter measured: Population Normal (%)

> print(dat)
                                   molecule  result.units  numeric.result
1  CCn1c(-c2nonc2N)nc2cnc(Oc3cccc(NC(=O)c4ccc(OCCN5CCOCC5)cc4)c3)cc21 [GSK-269962A]             %              89
2  CC(C)Oc1ccc(C(=O)N[C@H](CNC(=O)CN(C)C)Cc2ccc(-c3cn4cccc([C@H](C)O)c4n3)cc2)cc1Cl [GSK-923295A]             %              92
3  Cc1cc2c(cc1N1C(=O)c3cccc4c(CCCO)ccc(c34)C1=O)n(C)c(=O)n2C             %              91
